PROCEDURE_SUMMARY: soluble on expression in E. coli; label from the status in PepcDB or PDB records
OBSERVED_PROPERTY: soluble on expression in E. coli

For orientation, consider the following solved cases.
SEQUENCE_CHAIN	OBSERVED_PROPERTY	ENDPOINT_VALUE
MGSDKIHHHHHHMFLEPFFTQTDETVTISPFQASEFAKRVAEDFNPIHDESAKRFCVPGDLLFALVLSHYGLSQKMQFKFEGMVGEGVCLNFPVEVGDSFPICDSRDKTYLSVSRQGDVSRCETQIESFVRSYVSFSGLNFIHVLVPMMREHGVMINPDRPLVIYESMAFDLTTLDFDQVALELSDARLSVDGKRGDVTLEFALISDGKQVGTGVKTLVMSGLRALDEAALDGMAQFYEERRATL	soluble on expression in E. coli	not soluble
MSLKKFLKMFFPHDGIYEVLVGTSGIKPIIKPLGIIVEANELRSKIYKSTLTYSNLEKNNKCSIHVTLDTTFFILSMLDKLTFSIDSDYNVPVLKNLNVIYAECMKTSSTDPSIFTINPLDLEINSNLTRAYNRGDYISVDFLVNYTRLDIYKGEDLEKLVRILEYEWSVIKRTSQYTSSLLEEILNKMRSKGFKLDEGHHHHHH	soluble on expression in E. coli	not soluble
KFFNLFLKKGNKINPLIGNAGVSAVPDSARISQVIGLEYDPTNYLLMHAM	soluble on expression in E. coli	not soluble
MGSDKIHHHHHHMDLRDLTYFETIAELGHLGRAAEKLNRSQPALTKSIQRLEESFGTRLFQRDGRRIKLTPVGELLQARGKELQQSIAQTQREVRDFASGMVGNIRVGCAATMAEYLMPKLTSALLQRTPDVTFKLVIGQDDLLRESLRSGQLDMIICALAPDSDDVTSFAVLKDEAVVIASKHHPIFKTPLQMSDLCAYRWVLPPVSVSSRKWLDTTFAAHGLPLPTVQIEANSISLLPGLIAQSNLLSFVARESLEFGKTMQHLREVPLEQTTLKRTIGVTLRKGGYLSPAAEGMLQMLRDNGGDFLGWG	soluble on expression in E. coli	not soluble
MVWDVETAKRFLEIIKDEPIYYPALIALHTGMRAGEILSLKWCDVNFETRVISIVKSERKNRGLKTVNLKTKTSKRAVYMNDILYKELKNLYEITKPKPDDFVCPRLPTGNLTVNYLSRKFKKLVKKHNFPLIRFHDLRHTFATLMLSLGVNTKIVAEILGHSDIKLTADTYSHVLPTMQEEAMKEFVKLWKLEHHHHHH	soluble on expression in E. coli	not soluble

Input line: What measured soluble on expression in E. coli goes with MTNNAVLQLRAERLARATRPFLARGNRVRRCQRCLLPLKSCLCDTLTPSQAKSRFCLVMFDTEPMKPSNTGRLIADILPDTAAFQWSRTEPPQALLELVQHPDYQPIVVFPASYAGEAREVISTPPAGKPPLFIMLDGTWPEARKMFRKCPYLDHLPVISVDLSRLSAYRLREIHAEGQYCTAEVAIALLDLAGDTEAATSLGEHFTRFKTRYLAGKTQHPGNVTALEHHHHHH ?
Output line: not soluble

Input line: Quick one: MASRLFGVKCHNTDSEPLKNEDLLKNLLTMGVDIDMARKRQPGVFHRMITNEQDLKMFLLSKGASKEVIASIISRYPRAITRTPENLSKRWDLWRKIVTSDLEIVNILERSPESFFRSNNNLNLENNIKFLYSVGLTRKCLCRLLTNAPRTFSNSLDLNKQMVEFLQAAGLSLGHNDPADFVRKIIFKNPFILIQSTKRVKANIEFLRSTFNLNSEELLVLICGPGAEILDLSNDYARRSYANIKEKLFSLGCTEEEVQKFVLSYPDVIFLAEKKFNDKIDCLMEENISISQIIENPRVLDSSISTLKSRIKELVNAGCNLSTLNITLLSWSKKRYEAKLKKLSRFAHHHHHH
Output line: soluble

Input line: Quick one: MKTDVRWATFNIRYDNPQDSLNNWQYRKDRVCQFIKDHELDIVGMQEVLHNQFQDLRAGLPEYDGIGVGRDDGKTAGEYAPLFYRKDKYEVLDSNTFWLAENPDSVGMMGWDAVCVRIATWAKFKDKATGKIFMAVNTHFDHVGEEARRQSALLIIRKIKEIVGERPAVVTGDFNVTDASDAYETITTNEFVMKDAYKTAARVTGVDYTFHDFARIPAEDCEKIDFIFVTPQVLVKSCEIPAEVPEALLSDHNPQLADLELEHHHHHH
Output line: soluble

Input line: Quick one: MPLLDLLRPVSDEELRVLSERNPGWQFERLADGRLIVSPTGGESGRIRAAVLGPLYRWNEARGLGVVFDASTGFKLPDGSVLAPDAAFLLGKRWQALSQEAREGFPPLAPDAVFEVRSRSQGLEELREKAAWYLANGVRLVVLLDPYLHRVEVFRPGGVEGHQGPERVPLDPGLPGFALETRGLFLP
Output line: soluble

Input line: Quick one: MGSDKIHHHHHHMRYFARIAELGSFTRAASELGVAQPALSLHVRALEDQLGLQLLNRTSRGVVVTEAGQTLLVHAQAILRAVEQAEAATREQAKYPSGDVSLGILSSLSPILSIPVLEACDRRFPKIRLTISEGDSQTLRTATDIHAHDLAVNLLDVAKPTAVPLFDERLYAVGPLNAFTQRQNDLPLREALSLPLIMPSQRHGIRILLEKQALILGQKINIVRVIEGVASTKAAIRAGLGLTILGRGAVYADHQAGQLSVIPLRAPELFRRLVLDMPVNHPPTKAVLEVRQILMEVIKRLGGEGHWSCLA
Output line: not soluble

Input line: Quick one: MHMQLKGKTALVTGSTAGIGKAIATSLVAEGANVLINGRREENVNETIKEIRAQYPDAILQPVVADLGTEQGCQDVIEKYPKVDILINNLGIFEPVEYFDIPDEDWFKLFEVNIMSGVRLTRSYLKKMIERKEGRVIFIASEAAIMPSQEMAHYSATKTMQLSLSRSLAELTTGTNVTVNTIMPGSTLTEGVETMLNSLYPNEQLTIEEAEKRFMKENRPTSIIQRLIRPEEIAHLVTFLSSPLSSAINGSALRIDGGLVRSVF
Output line: not soluble

Input line: Quick one: MHHHHHHGSACFAKGTNVLMADGSIECIENIEVGNKVMGKDGRPREVIKLPRGSETMYSVVQKSQHRAHKSDSSREMPELLKFTCNATHELVVRTPRSVRRLSRTIKGVEYFEVITFEMGQKKAPDGRIVELVKEVSKSYPVSEGPERANELVESYRKASNKAYFEWTIEARDLSLLGSHVRKATYQTYAPIGAAFARECRGFYFELQELKEDDYYGITLSDDSDHQFLLANQVVVH
Output line: soluble
